testSystem: TF1-BCRABL1 cells (Homo sapiens, UniProt P00519)
Sequence (P00519 whole entry, change not shown): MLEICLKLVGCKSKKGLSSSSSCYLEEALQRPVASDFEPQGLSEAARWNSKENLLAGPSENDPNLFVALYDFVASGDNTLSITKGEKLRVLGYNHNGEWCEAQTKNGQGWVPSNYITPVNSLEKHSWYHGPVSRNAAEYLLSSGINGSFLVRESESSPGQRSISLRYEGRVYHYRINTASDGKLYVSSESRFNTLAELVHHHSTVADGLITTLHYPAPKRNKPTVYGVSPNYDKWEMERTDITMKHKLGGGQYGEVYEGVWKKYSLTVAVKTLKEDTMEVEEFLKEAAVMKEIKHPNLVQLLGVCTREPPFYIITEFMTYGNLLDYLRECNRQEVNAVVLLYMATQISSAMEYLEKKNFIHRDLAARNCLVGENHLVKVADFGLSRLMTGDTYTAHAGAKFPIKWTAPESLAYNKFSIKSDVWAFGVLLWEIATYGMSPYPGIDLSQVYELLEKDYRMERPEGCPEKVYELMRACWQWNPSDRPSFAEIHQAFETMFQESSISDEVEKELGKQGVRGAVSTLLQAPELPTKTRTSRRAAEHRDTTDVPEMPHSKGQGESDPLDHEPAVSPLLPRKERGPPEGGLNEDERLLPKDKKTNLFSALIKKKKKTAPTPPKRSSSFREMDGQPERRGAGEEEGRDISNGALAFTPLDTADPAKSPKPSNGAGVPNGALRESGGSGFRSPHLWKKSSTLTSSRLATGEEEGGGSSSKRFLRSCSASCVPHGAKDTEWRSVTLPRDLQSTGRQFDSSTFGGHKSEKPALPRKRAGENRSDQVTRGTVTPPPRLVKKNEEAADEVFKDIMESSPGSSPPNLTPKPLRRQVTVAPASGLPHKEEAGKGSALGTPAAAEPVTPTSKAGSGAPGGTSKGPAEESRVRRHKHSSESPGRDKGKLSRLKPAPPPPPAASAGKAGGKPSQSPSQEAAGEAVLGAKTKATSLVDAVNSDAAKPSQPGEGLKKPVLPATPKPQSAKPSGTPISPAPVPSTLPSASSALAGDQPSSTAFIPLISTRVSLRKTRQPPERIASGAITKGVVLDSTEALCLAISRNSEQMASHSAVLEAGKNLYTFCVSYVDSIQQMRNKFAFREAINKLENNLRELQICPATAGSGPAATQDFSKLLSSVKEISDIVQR
assayText: ABL1 cell based assay: viability of ABL1-dependent cell line (CellTiter-Glo)
experimentalConditions: 72 hours, cell viability; read-out: EXAMPLE F JAK2-TF1-BCRABL1 IC50
# GI50 values compiled below

| molecule | GI50 |
| --- | --- |
| Cc1ccc(C(=O)Nc2cccc(OC(F)(F)F)c2)cc1-c1ccc2c(c1)[nH]c1ncncc12 [Example 54] | ≤ 500 nM |
| Cc1ccc(NC(=O)c2cc(N3CCN(C)CC3)cc(C(F)(F)F)c2)cc1-c1ccc2c(c1)[nH]c1ncncc12 [Example 26, bis(trifluoroacetate)] | ≤ 500 nM |
| Cc1ccc(NC(=O)c2cc(N(C)C)cc(C(F)(F)F)c2)cc1-c1ccc2c(c1)[nH]c1ncncc12 [Example 36] | ≤ 500 nM |
| Cc1ccc(NC(=O)c2cc(-n3cnc(CO)c3)cc(C(F)(F)F)c2)cc1-c1ccc2c(c1)[nH]c1ncncc12 [Example 21, bis(trifluoroacetate)] | ≤ 500 nM |
| Cc1ccc(NC(=O)c2cc(C(F)(F)F)ccc2C(F)(F)F)cc1-c1ccc2[nH]c3ncncc3c2c1 [Example 45] | 500 to 1000 nM |
| Cc1ccc(C(=O)N[C@@H](C)c2ccccc2)cc1-c1ccc2c(c1)[nH]c1ncncc12 [Example 64] | 500 to 1000 nM |
| Cc1ccc(C(=O)Nc2cncc(C(F)(F)F)c2)cc1-c1ccc2c(c1)[nH]c1ncncc12 [Example 66] | ≤ 500 nM |
